pIC50: −log10 of the molar value.
Below are pIC50 values recorded for human β-Secretase (sBACE-Fc) (Homo sapiens).

- compound: "NC1=NC(c2ccncc2)(c2cccc(-c3cccnc3F)c2)C2=NCCCN12 (stereo not shown) [Example 17]"
  pIC50: 6.82
- compound: "COc1cccc(-c2cccc(C3(c4ccco4)N=C(N)N4CCCN=C43)c2)c1 (stereo not shown) [Example 51, acetate]"
  pIC50: 6.33
- compound: "NC1=NC(c2ccsc2)(c2cccc(-c3cccnc3F)c2)C2=NCCCN12 (stereo not shown) [Example 64, acetate]"
  pIC50: 6.61
- compound: "NC1=NC(c2ccncc2)(c2cccc(-c3cccc(Cl)c3F)c2)C2=NCCCN12 (stereo not shown) [Example 23]"
  pIC50: 7.00
